The reported measurements were obtained from paper PMC7111280.

Test system: Hel cells
TEST SETTINGS: Table 5, HSV/vaccinia assays, Hel cell morphology
MCC (minimal cytotoxic concentration) values by entry

- COMPOUND: "C#C[C@@]1(O)[C@@H](CO)O[C@@H](n2cc(Cl)c3c(Cl)ccnc32)[C@@H]1O"
  MCC (minimal cytotoxic concentration): "≥100 µM"
- COMPOUND: "C#C[C@@]1(O)[C@@H](CO)O[C@@H](n2ccc3c(Cl)ccnc32)[C@@H]1O"
  MCC (minimal cytotoxic concentration): ">100 µM"
- COMPOUND: "Nc1nc(O)c2ncn(COC(CO)CO)c2n1 [Ganciclovir, reference compound]"
  MCC (minimal cytotoxic concentration): ">100 µM"
